experiment: yeast display, Sf9 membrane polyspecificity reagent, FACS + sequencing; frameworks hold sequencing errors
assay endpoint: polyreactivity (PSR sort gate)

>>> result("QVQLVESGGGLVQAGGSLRLSCAASGRIFAYNAMGWYRQAPGKERELVAAIDSGGDTNYADSVKGRFTISRDNAKNTVYLQMNSLKPEDTAVYYCAARLYVLRWYPYDYWGHGTQVTVSS")
"low polyreactivity"
>>> result("QVQLVESGGGLVQAGGSLRLSCAASGGIFLFNAMGWYRQAPGKERELVAAITDGGSTYYADSVKGRFTISRDNAKNTVYLQMNSLKPEDTAVYYCNAEGVSLYGYDSGVDSGEDYWGQGTQVTVSS")
"low polyreactivity"

====

assay: yeast display, Sf9 membrane polyspecificity reagent, FACS + sequencing; frameworks hold sequencing errors
assay endpoint: polyreactivity (PSR sort gate)

>>> result("QVQLVESGGGLVQAGGSLRLSCAASGSTFSRYAMGWYRQAPGKERELVAAISYSGDSTYYADSVKGRFTISRDNAKNTVYLQMNSLKPEDTAVYYCNVYSHYRGYYWGQGTQVTVSS")
"high polyreactivity"
>>> result("QVQLVESGGGLVQAGGSHRLSCAASGFIFPYYTMGRYRQAPEKERELVAANRYSAGRTYYADSVKGRFTISRDIAKNTVYLQLNSLKPVDTAVYYCNAVSSGDMDYWGQGTQVTVSS")
"high polyreactivity"
>>> result("QDHLVESGGGLVQAGGSLRLSCAASGRTFGRNAMGWYRQAPGKERDFVAAITSSGGSTYYADSVKGRFTISRDNAKNTVYFQMNSLKPEDSAVFYCARSTRYYSWRRMDYWGQGTQVTVSS")
"high polyreactivity"
>>> result("QVQLVESGGGLVQAGGSLRLSCAASGSIFYIYAMGWYRPAPGKEREFVAAITWTGGSTYYADSVKGRFTISRDNAKNTVYLQMNSLKPEDTAVYYCARATVGAWRKMYSWGQGTQVTVSS")
"high polyreactivity"
>>> result("QVQLVESGGGLVQAGGSLRLSCAASGGILHSYAMGWYRQAPGKERELVAAISGSGGSTYYADSVKGRFTISRDNAKNTVYLQMNSLKPEDTAVYYCNAVHHYPEHIGGGYWGQGTQVTVSS")
"low polyreactivity"
>>> result("QVQLEESGGGLVQAGGSLRLSCAASGSIFVRNAMGWYRQAPGKERELVAAISRSGSSTYYADSVKGRFTISRDNAKNTVYLQMNSLKPEDTAVYYCAKRRPALRWIYYYWGQGTQVTVSS")
"high polyreactivity"
>>> result("QVQLVESGGGLVQAGASLRLSCPPSGFIFSLYAMGWYSQAPGKERELVADISWGDGTTYYADSVKGRFTISRDNAKNTVYLQMNSLKPEDTAVYYCAADSVSNWYWFNYWGQGTQVTVSS")
"high polyreactivity"
>>> result("QVQLVESGGGLVQAGGSLRLSCAASGRIFGIYAMGWYRQAPGKERELVARITGGGSTNYADSVKGRFTISRDNAKNTVYLQMNSLKPEDTAVYYCAATVRRIVGNITRYDYWGQGTQVTVSS")
"low polyreactivity"
>>> result("QVQLVESGGGLVQAGGSLRLSCAASGLIFVWYAMGWYRQAPGKERELVAAISWRGGTRYYADSVKGRFTISRDNAKNTVYLQMTSLKPEDTAVYYCARDPDTYFFPPNGYYSSGFDSWGQGTQVTVSS")
"low polyreactivity"
>>> result("QVQLVESGGGLVQAGGSLRLSCAASGGIFYINAMGWYRQAPGKERELVAAISRDGTITYYADSVKGRFTISRDNAKNTVYLQMNSLKPEDTAVYYCAADASIQSWYSIYDYWGQGTQVTVSS")
"high polyreactivity"
>>> result("QVQLVESGGGLVQAGGSLRLSSAASGIIFRVYTMGWYLQAPGKERELVAKISLGGARTYYADSVKGRFTISRDNAKNTVYLQMNSLKPEDTAVYYCNARSRWTAKFDYWGQGTQVTVSS")
"high polyreactivity"

====

assay: yeast display, Sf9 membrane polyspecificity reagent, FACS + sequencing; frameworks hold sequencing errors
assay endpoint: polyreactivity (PSR sort gate)

>>> result("QVQLVESGGGLVQAGGSLRLSCAASGFTFYHNAMGWYRQAPGKERELVAAISSSGDSTYYADSVKGRFTIARDNAKNTVYLQMNSLKPEDTAVYYCNDYFYYLSQYYYYWFNYDYWGQGTQVTVSS")
"low polyreactivity"
>>> result("QVQLVESGGGLVQAGGSLRLSCAASGRILRGYAMGWYRQAPGKERELVAAINSGGDTYYADSVKGRFTISRDNAKNTVYLQMNSLKPEDTAVYYCASDYWGWIYLYGDHLVDYRGQGTQVTVSS")
"low polyreactivity"
>>> result("QVQLVESGGGLVQAGGSLRLSCAASGFTLSRYVMGWYRQAPGKERELVATISTDTGDTYYADSVKGRFTISRDNAKNTVYLQMNSLKPEDTAVYYCAVEEWYIYLDLYWSYYYWGQGTQVTVSS")
"high polyreactivity"
>>> result("QVQLVESGGGLVQAGGSLRLSCAASGSTFRHYAMGWYRQAPGKERELVAAISYSGSRTYYADSVKGRFTISRDNAKNTVYLQMNSLKPEDTAVYYCNVNLQGRYSDKYDYWGQGTQVTVSS")
"high polyreactivity"
>>> result("QVQLVESGGGLVQAGGSLRLSCAASGSTFNYYAMGWYRQAPGKERELVAAITSSGTSTFYADSVKGRITISRDNAKNTVYLQMNSLKPEDTAVYYCAVDLYWSYFNGALGYRYYYWGQGTQVTVSS")
"high polyreactivity"

====

test: yeast display, Sf9 membrane polyspecificity reagent, FACS + sequencing; frameworks hold sequencing errors
assay endpoint: polyreactivity (PSR sort gate)

>>> result("QVQLVESGGGLVQAGGSLRLSCAASGRTFGNNAMGWYRQAPGKERELVAAITARGSRTYYADSVKGRFTISRDNAKNTVYLQMNSLKPEDTAVYYCNAGVRRYYRSLHSIGIYYYWGQGTQVTVSS")
"high polyreactivity"
>>> result("QVQLVESGGGLVQAGGSLRLSCAASVRIFAKYAMGWYRQAPGKERELVAAITSGGRTYYADSVKGRFTISRDNAKNTVYLPMNSLKPEDTAVYYCNAVPKSRDWQSYGSWGQGTQVTVSS")
"high polyreactivity"
>>> result("QVQLVESGGGLVQAGGSLRLSCAASGLTFHRYAMGWYRPAPGKERELVAAINYSGGRTYYADSVKGRFTISRDNAKYTVYLQMNSLKPEDTAVYYCAARFSRVYPRYDYWGQGTQVTVSS")
"high polyreactivity"
>>> result("QVHLVESGGGLVQAGGSLRLSCAASGSIFTPYAMGWYRQAPGKERELVATISWSGGRTYYADSVKGRFTISRDNAKNTVYLQMNSLKPEDTAVYYCAARGYSSEYDYWGQGTQVTVSS")
"high polyreactivity"

====

assay: yeast display, Sf9 membrane polyspecificity reagent, FACS + sequencing; frameworks hold sequencing errors
assay endpoint: polyreactivity (PSR sort gate)

>>> result("QVQLVESGGGLVQAGGSLRLSCAASGSIFYRYAMGWNRQAPGKEKELVAAISRSGGRTYYADSVKGRFTISRDNAMNTVYLQMNSLKPEDTAVYYCAAESTVGTDLGGYSWGQGSQVTVSS")
"high polyreactivity"
>>> result("QDQLVESGGGLVQAGGSLRLSCAASGITFNAYVMGWYRQAPGKERELVAAISVSDDYTYYADSVKGRFTISRDNAKNTVYLQINSLKPEDTAVYYCAAEWWDVIAPYDYWGQGTQVTVSS")
"low polyreactivity"
>>> result("QVQLVESGGGLVQAGGSLRLSCAASGFTFVYNAMGWYRQAPGKERELVASITQSGDITYYADSVKGRFTISRDNAKNTVYLQMNSLKPEDTAVYYCNKFQGTGDRFDSWGQGTQVTVSS")
"low polyreactivity"
>>> result("QVQLVESGGGLVQAGGSLRISCAASGIIFRYYAMGWYRQAPGKERELVARISSGGSTKYADSVKGRYTISRDNAKNTVYLQMNSLKPEDTAVYYCAAEYYSLRYAIFYYWGQGTQVTVSS")
"high polyreactivity"
>>> result("QVQLVESGGGLVQAGGSLRLSCAASGSTFQGKAMGWYRQAPGKERELVATINNDGSTYYADSVKGRFTISRDNAKNTVYLQMNSLKPEDTAVYYCAADVHRVVLEYDYWGQGTQVTVSS")
"low polyreactivity"

====

assay: yeast display, Sf9 membrane polyspecificity reagent, FACS + sequencing; frameworks hold sequencing errors
assay endpoint: polyreactivity (PSR sort gate)

>>> result("QVQLVESGGGLVQAGGSLRLSCAASGSTFNANAMGWYRQAPGKERELVAAITAIGGSTYYADSVTGRFTISRDNAKNTVYLQMNSLKPEDTAVYYCAADFSYVYYLYDYWGQGTQVTVSS")
"low polyreactivity"
>>> result("QVQLVESGGGLVQAGGSLRLSCAASGSTIEPYAMGWYRQAPGKERELLAAITLSAGSTYYADSVKGRFTISRDYAKNTVYLQMNSLNPEDTAVYYCNADYGYNNQLLWGYYGWSSDHWGQGTQVTVSS")
"low polyreactivity"
>>> result("QVQLVESGGGLVQAGGSLRLSCAASGIILRYYAMGWYRQAPGKERELVASITSSGGRTYYADSVKGRFRISRDNAKNTVYLQMNSLKPEDTAVDYCAAKWAVVSGYGYWGQGTQVTVSS")
"high polyreactivity"
>>> result("QVQLVESGGGLVQAGGSLRLSCAASGIIFGKYAMGWYRQAPGKERELVAAINYSGSTYYADSVKGRFTISRDNAKNTVYLQMNSLKPEDTAVYYCAAVLGLDTRYDYWGQGTQVTVSS")
"high polyreactivity"
>>> result("QVQLVESGGGLVQAGGSLRLSCAASGRIFNSYAMGWYRQAPGKERELVAAINWTDVSTYYADSVKGRFTISRDNAKNTVYLQMNSLKPEDTAVYYFAAVRWGSYTLSDDYWGQGTQVTVSS")
"low polyreactivity"
